Molecular target: eOD-GT8 (engineered outer domain germline-targeting version 8), monomer (HIV-1 gp120 engineered outer domain, …)

| binder | binding result |
| --- | --- |
| G001_gp1_V10_VRC01c_2021-0093 (antibody, V domains shown) VH: QVQLVQSGAEVHNPGASVKVSCKASGYTFSDHYIHWVRQAPGQGLEWMGWINPNSGGTNYAQKFQGWVSMTRDTSITTAYMELSRLRSADTAVYYCAIPGICPGGNCYSYYFDSWGQGTLVSVSS VL: EIVLTQSPGTLSVSPGERATLSCRSSQSVSSLAWYQLKPGQAPRLLIYGAYNRAIGIPDRFSGSGSGTDFTLTISRLEPEDLAVYYCQQYEFFGQGTKLEIK | binds |
| G001_gp1_V10_VRC01c_2021-0124 (antibody, V domains shown) VH: QVQLVQSGAEVKKPGASVKVSCKASGYTFTGYYMHWVRQAPGQGLEWMGWINPNSGGTNYARKFQGWVTMTRDTSIGTAYMELSRLRSDDTAVYYCAKSRSRDDTWLFDYWGQGTLVTVSS VL: DIVMTQSPDSLAVSLGERATINCKSSRSVLYSSNNKNFLTWYQQKPGQPPKLLIYWASTRESGVPERFSGSGSGTDFTLTISSLQAEDVAVYYCQQYESFGQGTKLEIK | binds |
